METHOD: modulators of CD8 T cell-vesicle binding, confirmation, cherry-picked primary hits, two concentrations (AID 2810);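 note: lower values mean blocking of vesicle binding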
STATED_CONDITIONS: 2C CD8+ T cell-vesicle binding, flow cytometry; CD8+/vesicle+ events; at 15.4 µM; stronger effect = lower value
The whole screen tested about 1,200 compounds, of which about 65 (5%) were called active. Shown is part of a subset that was picked to be rich in actives.
Rule: measured double positive events below 10% gets label 1; anything equal to or greater than 10% gets label 0.

{"COMPOUND": "Cc1ccc(C(=O)NCc2ccco2)o1", "QUALITATIVE_LABEL": "label 0"}
{"COMPOUND": "COc1ccccc1CNC(=O)C1CCC1", "QUALITATIVE_LABEL": "label 0"}
{"COMPOUND": "CCc1ccccc1NC(=O)NCc1ccc2c(c1)OCO2", "QUALITATIVE_LABEL": "label 0"}
{"COMPOUND": "COc1cccc(C(=O)O[C@@H]2[C@H](Cc3ccccc3)NS(=O)(=O)[C@H]3C[C@@H]4C=C[C@]23O4)c1", "QUALITATIVE_LABEL": "label 0"}
{"COMPOUND": "CCOc1ccc(CCNC(=O)CCc2nnc3ccc(N4CCCC4)nn23)cc1OCC", "QUALITATIVE_LABEL": "label 0"}
{"COMPOUND": "CC(=O)Nc1ccc(S(=O)(=O)NC2CCSc3ccccc32)cc1 (stereo not given)", "QUALITATIVE_LABEL": "label 0"}
{"COMPOUND": "CCOC(=O)C1CCN(C(=O)c2cccc(S(=O)(=O)NCc3ccccc3)c2)CC1", "QUALITATIVE_LABEL": "label 0"}
{"COMPOUND": "O=C(Nc1nc(-c2ccccc2)cs1)c1ccc(N2CCOCC2)c([N+](=O)[O-])c1", "QUALITATIVE_LABEL": "label 0"}
{"COMPOUND": "O=C1CCCc2sccc2N1", "QUALITATIVE_LABEL": "label 1"}
{"COMPOUND": "CCn1c(SCC(=O)NCC2CCCO2)nnc1-c1c[nH]c2ccccc12 (stereo not given)", "QUALITATIVE_LABEL": "label 0"}
{"COMPOUND": "O=C(NNC(=S)NC(=O)c1ccco1)c1ccc(F)cc1", "QUALITATIVE_LABEL": "label 0"}
{"COMPOUND": "COc1ccc(S(=O)(=O)N(C)c2ccc(C(=O)NCC3CCCO3)cc2)cc1OC (stereo not given)", "QUALITATIVE_LABEL": "label 0"}
{"COMPOUND": "Cc1cc(C)cc(NC(=O)C(=O)NCCCN2CCCC2=O)c1", "QUALITATIVE_LABEL": "label 1"}
{"COMPOUND": "CCc1noc(C)c1C(=O)OC(C)C(=O)Nc1ccc2c(c1)OCO2 (stereo not given)", "QUALITATIVE_LABEL": "label 1"}
{"COMPOUND": "CCNC(=O)CSc1nc(-c2ccccc2)cs1", "QUALITATIVE_LABEL": "label 0"}
{"COMPOUND": "CSc1ccccc1NC(=O)CN(C)C(=O)c1ccc2c(c1)OCCO2", "QUALITATIVE_LABEL": "label 1"}
{"COMPOUND": "O=C(CSCCO)N1CCc2ccccc21", "QUALITATIVE_LABEL": "label 0"}
{"COMPOUND": "O=C(CN1C(=O)COc2ccc(S(=O)(=O)N3CCCC3)cc21)NC1CC1", "QUALITATIVE_LABEL": "label 0"}
{"COMPOUND": "CN(C(=O)COC(=O)c1cccc(NS(=O)(=O)c2ccc(F)c(F)c2)c1)C1CCS(=O)(=O)C1 (stereo not given)", "QUALITATIVE_LABEL": "label 0"}
{"COMPOUND": "Cc1ccc2nc(-c3cccnc3)c(NC3CCCC3)n2c1", "QUALITATIVE_LABEL": "label 0"}
{"COMPOUND": "CCOC(=O)C1(CC2CCCCO2)CCN(S(=O)(=O)c2ccc(C)s2)CC1 (stereo not given)", "QUALITATIVE_LABEL": "label 0"}
{"COMPOUND": "Cc1ccc(NC(=O)COC(=O)c2c(-c3ccccc3)noc2C)c(C)c1", "QUALITATIVE_LABEL": "label 0"}
{"COMPOUND": "O=C(COC(=O)C1(c2cccc(F)c2)CCCC1)NCc1ccc2c(c1)OCO2", "QUALITATIVE_LABEL": "label 1"}
{"COMPOUND": "CN(C)S(=O)(=O)c1ccc(NC(=O)c2ccc([N+](=O)[O-])cc2)cc1", "QUALITATIVE_LABEL": "label 0"}
{"COMPOUND": "Cc1ccc(NC(=O)C2CCCO2)cc1[N+](=O)[O-] (stereo not given)", "QUALITATIVE_LABEL": "label 1"}
{"COMPOUND": "CCC(C(=O)Nc1ccccc1)c1ccccc1 (stereo not given)", "QUALITATIVE_LABEL": "label 0"}
{"COMPOUND": "O=C(NCC(=O)N1CCN(C(=O)c2ccccc2)CC1)c1ccccc1", "QUALITATIVE_LABEL": "label 0"}
{"COMPOUND": "COc1ccc([C@H]2CC(=O)C=C(c3ccc4c5c(cccc35)CC4)C2)cc1", "QUALITATIVE_LABEL": "label 0"}
{"COMPOUND": "S=c1sc2c(N3CCOCC3)ncnc2n1-c1ccccc1", "QUALITATIVE_LABEL": "label 0"}
{"COMPOUND": "Cc1cccc(C(=O)OCC(=O)Nc2ccc3c(c2)OCCO3)c1O", "QUALITATIVE_LABEL": "label 0"}
{"COMPOUND": "COc1ccc([C@H]2CC(=O)C=C(/C=C/c3ccccc3)C2)cc1", "QUALITATIVE_LABEL": "label 1"}
{"COMPOUND": "CCOc1ccc(CCNC(=O)c2cccc(-n3cnnn3)c2)cc1OCC", "QUALITATIVE_LABEL": "label 1"}
{"COMPOUND": "O=C(NC(=S)NCc1ccco1)c1ccc(Br)cc1", "QUALITATIVE_LABEL": "label 1"}
{"COMPOUND": "CC(Sc1nc2ccccc2s1)C(=O)Nc1ccc2c(c1)OCO2 (stereo not given)", "QUALITATIVE_LABEL": "label 0"}
{"COMPOUND": "CCOc1ccc(CCNC(=O)CCS(=O)(=O)c2ccc(C)cc2)cc1OCC", "QUALITATIVE_LABEL": "label 0"}
{"COMPOUND": "CC(C)(C)C(=O)Nc1ccc2c(c1)OCCOCCOc1cc(NC(=O)C(C)(C)C)ccc1OCCOCCO2", "QUALITATIVE_LABEL": "label 0"}
{"COMPOUND": "O=C(NC(=S)Nc1nc(-c2ccccc2)cs1)c1cccs1", "QUALITATIVE_LABEL": "label 1"}
{"COMPOUND": "COCCNC(=O)c1c[nH]c2ccc(OC)cc2c1=O", "QUALITATIVE_LABEL": "label 0"}
{"COMPOUND": "CCOC(=O)N1CCN(Cc2nc(-c3ccc(C)cc3)no2)CC1", "QUALITATIVE_LABEL": "label 1"}
{"COMPOUND": "COc1ccccc1CNC(=O)c1ccc(N(C)S(=O)(=O)c2ccc(C)cc2)cc1", "QUALITATIVE_LABEL": "label 1"}

Provenance of the data: PubChem BioAssay AID2810
